// provenance: patent US20100143349A1

Below, each of the binders is paired with its reported IC50 value.
# TGT: T1, hRAGE-Fc (human, UniProt Q15109 23-342, biotin label in the selections and HTRF assays)
# T1 construct: extracellular domain; also called biotin labeled hRAGE-Fc; Biotin-labeled RAGE-Fc; not shown: Fc part
# PROTOCOL NOTES: HTRF competition, scFv vs labelled parental XT-M4 (competitor) on biotin hRAGE-Fc
A complete answer gives the number and then names the unit.

INSERT INTO results (binder, observed_measurement) VALUES
  ('6B2 scFv (scFv) scFv: DIQMTQSPSSLSASVGDRVTITCRASQDVGIYVNWFQQKPGKAPRRLIYRATNLADGVPSRFSGSRSGTDFTLTISSLQPEDFATYYCLEFDEHPLTFGGGTKVEIKDGGGSGGGGSGGGGSSEVQLVESGGGLVQPGGSLRLSCAASGFTFNNYWMTWVRQAPGKGLEWVASIDNSGDNTYYPDSVKDRFTISRDNAKNSLYLQMNSLRAEDTAVYYCARGGDIRVGLDVWGQGTLVTVSS', '1.77 nM'),
  ('3D5 scFv (scFv) scFv: DIQMTQSPSSLSASVGDRVTITCRASQDVGIYVNWFQQKPGKAPRRLIYRATNLADGVPSRFSGSRSGTDFTLTISSLQPEDFATYYCLEFDEHPLTFGGGTKVEIKDGGGSGGGGSGGGGSSEVQLVESGGGLVQPGGSLRLSCAASGFTFNNYWMTWVRQAPGKGLEWVASIDNSGDNTYYPDSVKDRFTISRDNAKNSLYLQMNSLRAEDTAVYYCARGGDIKVGLDLWGQGTLVTVSS', '3 nM');

Query block: So what's the measured IC50 for this one? 3G5 scFv (scFv) scFv: DIQMTQSPSSLSASVGDRVTITCRASQDVGIYVNWFQQKPGKAPRRLIYRATNLADGVPSRFSGSRSGTDFTLTISSLQPEDFATYYCLEFDEHPLTFGGGTKVEIKDGGGSGGGGSGGGGSSEVQLVESGGGLVQPGGSLRLSCAASGFTFNNYWMTWVRQAPGKGLEWVASIDNSGDNTYYPDSVKDRFTISRDNAKNSLYLQMNSLRAEDTAVYYCARGGDILDSLPYWGQGTLVTVSS
Result block: 0.87 nM

Query block: So what's the measured IC50 for this one? 6C2 scFv (scFv) scFv: DIQMTQSPSSLSASVGDRVTITCRASQDVGIYVNWFQQKPGKAPRRLIYRATNLADGVPSRFSGSRSGTDFTLTISSLQPEDFATYYCLEFDEHPLTFGGGTKVEIKDGGGSGGGGSGGGGSSEVQLVESGGGLVQPGGSLRLSCAASGFTFNNYWMTWVRQAPGKGLEWVASIDNSGDNTYYPDSVKDRFTISRDNAKNSLYLQMNSLRAEDTAVYYCARGGDIKVSLDRWGQGTLVTVSS
Result block: 0.731 nM

Query block: So what's the measured IC50 for this one? 3B7 scFv (scFv) scFv: DIQMTQSPSSLSASVGDRVTITCRASQDVGIYVNWFQQKPGKAPRRLIYRATNLADGVPSRFSGSRSGTDFTLTISSLQPEDFATYYCLQFDSHPLTFGGGTKVEIKDGGGSGGGGSGGGGSSEVQLVESGGGLVQPGGSLRLSCAASGFTFNNYWMTWVRQAPGKGLEWVASIDNSGDNTYYPDSVKDRFTISRDNAKNSLYLQMNSLRAEDTAVYYCARGGDITTGFDYWGQGTLVTVSS
Result block: 7.35 nM
